target: pooled human IgG (human IgG1, 2, 3 and 4) (human); test: cell-based or functional assay; also: test concentration or dose not given here
recorded metric: Enzyme Activity Endpoint Assay: Fab′2 (ng/µL)
The reply should contain only the number, in ng/µL.

For orientation, consider the following solved cases.
Query :: Identify the reported Enzyme Activity Endpoint Assay: Fab′2 for the following entry. PRT-427 (enzyme) MTITSVWTKGVTPPTPEDFRYNNEDVLHAPYVANQGWYDITKTFDGKDNLLCGAATAGNMLHWWFDQNKEEIERYLKKHPEKQKIIFNNQELFDVKAAIDTKDSQTNSKLFNYFRDKAFPNLSARQLGVMPDLVLDMFINGYYLNLGKTQSTDVNRPYQDKDKRGGIFDAVFTRGVQTTLLTARHDLKNKGLNEISDLIKQELTEGKALALSHTYANVRINHVINLWGADFDAEGNLIAIYVTDSDANASIGMKKYFVGVNANGKVAISAKKIEGDNIGAQVLGLFTLSTGQDIWQKLS
Result :: 537

Query :: Identify the reported Enzyme Activity Endpoint Assay: Fab′2 for the following entry. PRT-386 (enzyme) MVTSVWTKGVTPPTNFTYGEDVLHAPYVANQGWYDITKTFNGKDDLLCGAATAGNMLHWWFDQNKEQIENYLKKHPEKQKINFNGEQMFDVKEAIDTKDSQLDSKLFEYFKEKAFPYLSTKHLGVFPDHVIDMFINGYRLSLTNHGPTPVKRGSKDPRGGIFDAVFTRGDQSKLLTNRHDFKEKTLKEISDLIKQELTEGKALGISHTYANVRINHVINLWGADFDAEGNLEAIAVTDSDSNASIGMKKYFVGVNSNGKVAISAKEIEEDNIGAQVLGLFTLSTGQDIWNQTN
Result :: 519

Query :: Identify the reported Enzyme Activity Endpoint Assay: Fab′2 for the following entry. PRT-410 (enzyme) MVTSVWTKGVTPPADFTQGEDVFHAPYVANQGWYDITKTFNGKDDLLCGAATAGNMLHWWFDQNKEYIEAYLKKHPEKQKIMFGDQELLDVRKAINTKGSQKNSELFNYFRDKAFPNLSARRLGVMPDLVLDMFINGYYLNVTKTQTTDVNRTYQEKDKRGGIFDAVFTRGDQSKLLTSRHDFKEKGLKEISDLIKQELTEGKALGLSHTYANVRINHVINLWGADFDSDGNLKAIYVTDSDTNASIGMKKYFVGVNSAGKVAISAKEIKEDNIGAQVLGLFTLSTGQDIWNQTN
Result :: 567

Switching to the query record.
Query :: Identify the reported Enzyme Activity Endpoint Assay: Fab′2 for the following entry. PRT-393 (enzyme) MVTSVWTKGVTPPTNFTYGEDVLHAPYVANQGWYDITKTFNGKDDLLCGAATAGNMLHWWFDQNKEQIENYLKKHPEKQKINFNGEQMFDVKEAIDTKDSQLDSKLFEYFKEKAFPYLSTKHLGVFPDHVIDMFINGYRLSLTNHGPTPVKRGSKDPRGGIFDAVFTRGDQSKLLTNRHDFKEKTLKEISDLIKQELTEGKALGISHTYANVRINHVINLWGADFDAEGNLEAIYVTDSDTNASIGMKKYFVGVNSNGKVAISAKEIEEDNIGAQVLGLFTLSTGQDIWNQTN
Result :: 663
